# credit: patent US20240279341A1

# system: T1, human MerTK overexpressed on CHO cells (human, UniProt Q12866 21-999)
# T1 construct: also called CHO-huMerTK OE; CHO-human MerTK OE cells
# T1 sequence: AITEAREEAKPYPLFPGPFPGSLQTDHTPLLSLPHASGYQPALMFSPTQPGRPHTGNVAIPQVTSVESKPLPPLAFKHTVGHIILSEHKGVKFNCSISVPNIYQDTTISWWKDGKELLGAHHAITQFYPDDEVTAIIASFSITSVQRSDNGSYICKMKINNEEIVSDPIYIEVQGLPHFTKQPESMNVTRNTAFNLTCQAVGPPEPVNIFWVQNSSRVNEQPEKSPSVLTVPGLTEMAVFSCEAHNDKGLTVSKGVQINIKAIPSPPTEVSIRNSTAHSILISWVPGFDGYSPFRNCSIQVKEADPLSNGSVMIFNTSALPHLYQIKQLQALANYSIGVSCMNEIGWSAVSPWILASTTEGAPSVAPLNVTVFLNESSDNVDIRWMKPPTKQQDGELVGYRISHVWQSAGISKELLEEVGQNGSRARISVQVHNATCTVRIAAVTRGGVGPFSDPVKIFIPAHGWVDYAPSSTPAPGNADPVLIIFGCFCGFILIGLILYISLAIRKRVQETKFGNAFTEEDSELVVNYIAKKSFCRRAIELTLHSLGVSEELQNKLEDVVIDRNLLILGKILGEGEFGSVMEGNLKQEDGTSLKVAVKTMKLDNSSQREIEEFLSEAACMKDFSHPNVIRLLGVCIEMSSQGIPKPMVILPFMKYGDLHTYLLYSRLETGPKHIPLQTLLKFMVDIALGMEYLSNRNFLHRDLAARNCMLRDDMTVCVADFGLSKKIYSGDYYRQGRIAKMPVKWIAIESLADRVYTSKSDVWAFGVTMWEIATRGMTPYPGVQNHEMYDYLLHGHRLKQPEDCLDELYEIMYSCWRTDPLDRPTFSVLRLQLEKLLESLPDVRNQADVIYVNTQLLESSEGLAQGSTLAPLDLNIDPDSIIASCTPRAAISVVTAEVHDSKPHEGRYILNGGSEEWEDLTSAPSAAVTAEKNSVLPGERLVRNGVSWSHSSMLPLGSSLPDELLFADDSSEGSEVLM
# assay_comment: flow cytometry on CHO-huMerTK OE cells, Dylight650-conjugated antibody; average FACS Kd from Prism fit of MFI
value_kind: pKd
Reminder that pKd is minus the log10 of a molar concentration.

Which pKd is reported for this binder? bivalent anti-MerTK antibody MTK-33.11 (full IgG) (antibody, V domains shown) VH: QVQLVQSGAEVKKPGASVKVSCKASGYTFTSYWMHWVRQAPGQGLEWIGVIDPSDNYINYNQKFQGRVTMTRDTSTSTVYMELSSLRSEDTAVYYCAREAWTRGYFDYWGQGTLVTVSS VL: DIQMTQSPSSLSASVGDRVTITCQASRSVRNTVAWYQQKPGKAPKLLIYYASNRYTGVPSRFSGSGSGTDFTFTISSLQPEDIATYYCQQDYRSPFTFGQGTKLEIKR
9.36

Then this binder: monovalent anti-MerTK antibody MTK-33.11 (antibody, V domains shown) VH: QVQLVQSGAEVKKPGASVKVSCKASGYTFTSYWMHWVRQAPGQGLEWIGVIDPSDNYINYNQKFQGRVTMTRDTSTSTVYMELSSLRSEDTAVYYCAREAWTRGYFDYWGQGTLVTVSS VL: DIQMTQSPSSLSASVGDRVTITCQASRSVRNTVAWYQQKPGKAPKLLIYYASNRYTGVPSRFSGSGSGTDFTFTISSLQPEDIATYYCQQDYRSPFTFGQGTKLEIK
8.30

Then this binder: bivalent anti-MerTK antibody MTK-16.2 (full IgG) (antibody, V domains shown) VH: QVQLVQSGSELKKPGASVKVSCKASGYTFTNHGMNWVRQAPGQGLEWMGWINTYTGEPTYADDFKGRFVFSLDTSVSTAYLQISSLKAEDTAVYYCARKGVTAARYFDYWGQGTLVTVSS VL: DIQMTQSPSSLSASVGDRVTITCRASQNVRTAVAWYQQKPGKAPKRLIYLASNRHTGVPSRFSGSGSGTEFTLTISNLQPEDFATYYCLQHWNYPLTFGGGTKLEIKR
7.37

Then this binder: monovalent anti-MerTK antibody MTK-16.2 (antibody, V domains shown) VH: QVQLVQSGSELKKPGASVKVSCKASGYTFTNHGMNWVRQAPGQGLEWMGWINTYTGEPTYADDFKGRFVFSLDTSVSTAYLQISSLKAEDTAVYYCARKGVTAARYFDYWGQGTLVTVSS VL: DIQMTQSPSSLSASVGDRVTITCRASQNVRTAVAWYQQKPGKAPKRLIYLASNRHTGVPSRFSGSGSGTEFTLTISNLQPEDFATYYCLQHWNYPLTFGGGTKLEIK
7.39
